assay: Clearance in Sprague-Dawley rat at 0.5 mg/kg, iv measured upto 24 hrs by LC/MS/MS analysis; type: ADME, organism-based; conditions: in vivo
measured.parameter: clearance (mL/min/kg)
Give the value, in units of mL/min/kg, as a plain number.

Ask: Please give the measured clearance for this compound: CCOc1ccc(NC(=O)C(C)C)cc1C(=O)NC(C)c1cccc(NC)c1 (stereo unspecified)
Reply: 48

---

test: AUC (0 to t) in Sprague-Dawley rat at 5 mg/kg, po measured upto 24 hrs by LC/MS/MS analysis; type: ADME, organism-based; settings: in vivo
measured.parameter: AUC(0-t) at 24 h (ng·h/mL)
Give the value, in units of ng·h/mL, as a plain number.

Ask: Please give the measured AUC(0-t) at 24 h for this molecule: CCOc1ccc(NC(=O)C(C)C)cc1C(=O)NC(C)c1cccc(NC)c1 (stereo unspecified)
Reply: 337
